Tested on: UniProtKB Q8WUI4
Sequence (Q8WUI4 whole entry): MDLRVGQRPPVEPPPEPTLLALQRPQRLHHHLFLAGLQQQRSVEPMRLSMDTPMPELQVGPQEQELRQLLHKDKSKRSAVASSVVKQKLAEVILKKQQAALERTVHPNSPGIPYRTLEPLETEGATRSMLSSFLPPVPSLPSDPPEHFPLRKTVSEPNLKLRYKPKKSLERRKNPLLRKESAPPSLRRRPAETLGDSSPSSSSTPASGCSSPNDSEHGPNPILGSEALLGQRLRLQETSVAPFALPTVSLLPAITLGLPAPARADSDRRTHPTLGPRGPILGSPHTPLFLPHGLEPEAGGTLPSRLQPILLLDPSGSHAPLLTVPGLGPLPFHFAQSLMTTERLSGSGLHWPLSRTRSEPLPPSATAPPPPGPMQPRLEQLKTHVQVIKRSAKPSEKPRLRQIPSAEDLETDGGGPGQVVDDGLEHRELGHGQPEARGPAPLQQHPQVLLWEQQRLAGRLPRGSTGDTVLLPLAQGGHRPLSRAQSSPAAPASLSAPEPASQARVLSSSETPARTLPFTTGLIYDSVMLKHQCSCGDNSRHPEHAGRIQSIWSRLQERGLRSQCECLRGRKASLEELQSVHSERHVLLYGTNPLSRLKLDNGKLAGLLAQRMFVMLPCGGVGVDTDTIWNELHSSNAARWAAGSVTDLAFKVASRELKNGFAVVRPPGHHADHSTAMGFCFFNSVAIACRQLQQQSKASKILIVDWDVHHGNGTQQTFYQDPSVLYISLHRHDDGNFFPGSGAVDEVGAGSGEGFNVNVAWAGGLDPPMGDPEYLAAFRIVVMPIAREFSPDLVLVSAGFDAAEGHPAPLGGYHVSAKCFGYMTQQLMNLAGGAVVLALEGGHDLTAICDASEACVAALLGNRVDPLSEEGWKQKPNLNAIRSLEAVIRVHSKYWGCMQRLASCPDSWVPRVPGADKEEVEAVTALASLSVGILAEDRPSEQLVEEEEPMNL
Endpoint: IC50

Q) What does the data say about its IC50? Entry: CCCNNC(=O)c1ccc(CNC(=O)[C@H](CC(C)C)NC(=O)[C@@H](O)[C@H](N)Cc2ccccc2)cc1.Cl
A) > 10 µM
